Molecular target: T1, human FAPα-His tag (Sino biological) (human, UniProt Q12884 26-760)
T1 construct: Bought protein; also called human FAPα-His protein; not shown: His tag
T1 sequence (looked up): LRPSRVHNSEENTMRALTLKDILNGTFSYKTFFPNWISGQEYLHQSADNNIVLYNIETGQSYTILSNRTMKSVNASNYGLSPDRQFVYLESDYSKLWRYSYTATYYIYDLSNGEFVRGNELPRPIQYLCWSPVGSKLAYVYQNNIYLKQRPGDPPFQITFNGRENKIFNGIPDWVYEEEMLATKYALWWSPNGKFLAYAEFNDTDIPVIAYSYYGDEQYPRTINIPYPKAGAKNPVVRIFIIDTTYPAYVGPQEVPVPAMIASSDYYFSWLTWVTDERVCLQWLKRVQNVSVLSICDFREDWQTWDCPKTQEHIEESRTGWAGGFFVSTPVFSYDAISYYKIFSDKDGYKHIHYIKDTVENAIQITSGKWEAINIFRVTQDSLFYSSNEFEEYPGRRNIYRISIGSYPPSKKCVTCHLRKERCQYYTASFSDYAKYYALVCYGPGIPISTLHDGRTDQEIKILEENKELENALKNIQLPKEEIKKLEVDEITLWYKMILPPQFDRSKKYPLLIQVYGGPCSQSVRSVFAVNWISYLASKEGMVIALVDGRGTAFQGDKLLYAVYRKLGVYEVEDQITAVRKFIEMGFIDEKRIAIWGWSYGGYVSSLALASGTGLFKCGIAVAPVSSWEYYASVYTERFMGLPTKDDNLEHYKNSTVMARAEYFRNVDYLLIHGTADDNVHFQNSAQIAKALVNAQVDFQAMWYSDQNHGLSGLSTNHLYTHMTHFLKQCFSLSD
Assay: competitive ELISA on coated human FAPα; competitor (detected): FAP-G14-Bio
measured.parameter: OD 450 nm

# get_value(readout='OD 450 nm', item= I37 (antibody, V domains shown, Tested as a mAb; also called FAP-I37) VH: QLQLVESGGGLVQPGGSLRLSCAASGFTFSSYAMSWVRQAPGKGLEWVSAISGSGGSTYYADSVKGRFTISRDNSKNTLYLQMNSLRAEDTAVYYCARDKPWGGSFDYWGQGTLVTVSA VL: DIQLTQSPSSLSASVGDRVTITCRASQGISSWLAWYQQKPGKAPKLLIYAASSLQSGVPSRFSGSGSGTDFTLTISSLQPEDFATYYCQQANSFPVTFGPGTKVDIK )
0.224 OD 450 nm
